Kindly state growth for each of the entries shown.
- System: T-47D breast
- procedure_details: NCI-60 one-dose screen, 48 h (100 = growth as untreated, 0 = no growth, -100 = all killed)
- test_conditions: 10 µM unless noted
- Method: Growth inhibition of the T-47D human tumor cell line is measured as a screen for anti-cancer activity. Cells are grown in 96 well plates and exposed to the test compound for 48 hours. Compounds are tested at a single concentration, which is 10^-5 M for most compounds. The reported endpoint is percent growth (GI% or GIPRCNT), where numbers from 0 - 100% represent growth inhibition, and numbers from -100% - 0 represent cell death. For example, a value of 40 represents 60% growth inhibition. […]
The panel holds about 83,000 compounds, 20% with a hit somewhere; the sample as a whole holds those more often.
Give bare numbers, in %.

The following compounds have reported results that may help.
compound: CN1C(=O)N(C)C2NC(N/N=C/c3ccccc3)=NC21 (stereo unspecified)
growth / %: 90.6
//
compound: CCCNC(=O)Oc1ccc(/C(=C(\C)c2ccccc2)c2ccc(OCCN3CCCCC3)cc2)cc1
growth / %: 38.7
//
compound: Nc1nnc(C(=O)c2cnc3n(c2=O)CCCCC3)s1
growth / %: 98.5
//
compound: COc1ccc(NC(=O)c2sc3nc(C)c(C(=O)c4ccc(OC)cc4)cc3c2N)cc1
growth / %: 59.6
//
compound: CN1CCN(Cc2ccc(NC(=O)c3cncc(C#Cc4cnccc4C(F)(F)F)c3)cc2C(F)(F)F)CC1
growth / %: 92.2
//
compound: O=c1nc2n(nc1/C=C/c1ccco1)CC(c1ccc(Cl)cc1)=NN2
growth / %: 49.7

Working through the 2 compounds below one at a time, give growth for each.
1. COc1ccc(C(=O)c2cc3c(N)c(C(=O)Nc4cccc5ccccc45)sc3nc2C)cc1
2. O=C(CSc1nc2sc3c(c2c(=O)n1Cc1ccccc1)CCCC3)N1CCN(c2ccccc2)CC1

Response:
1. 32.6
2. 80.9

Where these numbers come from: PubChem BioAssay (NCI)
